test system: c-Myc27 oligonucleotide G-quadruplex; test: ECD melting curve of c-Myc27 oligonucleotide G-quadruplex with ligands; assay type: binding; conditions: ECD at 263 nm; molar ratio oligonucleotide:ligand 1:1 (5 μmol l^−1 each); Li+-cacodylate buffer
Entries annotated with measured ΔTm (° C.)
observation-type: ΔTm (° C.) (°C)

Cc1[nH]c2ccccc2c1/C=C/c1cc[n+]2c(c1)-c1c(ccc3c1-c1cc(/C=C/c4c(C)[nH]c5ccccc45)cc[n+]1CC3)CC2.O=S(=O)([O-])C(F)(F)F.O=S(=O)([O-])C(F)(F)F [PDA-C10-11] = 8.2
C(=C\c1c(-c2ccccc2)[nH]c2ccccc12)/c1cc[n+]2c(c1)-c1c(ccc3c1-c1cc(/C=C/c4c(-c5ccccc5)[nH]c5ccccc45)cc[n+]1CC3)CC2.O=S(=O)([O-])C(F)(F)F.O=S(=O)([O-])C(F)(F)F [PDA-C15-8] = 10.1
Cc1c(C)c2c(c3c1CC[n+]1ccc(/C=C/c4c[nH]c5ncccc45)cc1-3)-c1cc(/C=C/c3c[nH]c4ncccc34)cc[n+]1CC2 [PDB-C8-14] = 5.0

----------
system: c-myc protein; experiment: Immunodetection of protein c-myc in HGC-27 cell lysates (Western blot); format: cell-based, human; settings: 50 μmol · l^−1, 24 hour incubation, normalized to β-actin
The label is T for c-myc protein expression relative to control (control = 100%) below 70% and F for c-myc protein expression relative to control (control = 100%) equal to or exceeding 70%.

CCCCCCc1ccc(/C=C/c2cc[n+]3c(c2)-c2c(c(C)c(C)c4c2-c2c5ccccc5cc[n+]2CC4)CC3)s1.O=S(=O)([O-])C(F)(F)F.O=S(=O)([O-])C(F)(F)F = T
C(=C\c1ccc(-c2cccs2)s1)/c1cc[n+]2c(c1)-c1c(ccc3c1-c1cccc[n+]1CC3)CC2.O=S(=O)([O-])C(F)(F)F.O=S(=O)([O-])C(F)(F)F = T
C(=C\c1cc2ccccc2[nH]1)/c1cc(/C=C/c2cc3ccccc3[nH]2)[n+]2c(c1)-c1c(ccc3c1-c1cccc[n+]1CC3)CC2.O=S(=O)([O-])C(F)(F)F.O=S(=O)([O-])C(F)(F)F = F
Brc1ccc2[nH]cc(/C=C/c3cc4ccccc4[n+]4c3-c3c(ccc5c3-c3cccc[n+]3CCC5)CCC4)c2c1.O=S(=O)([O-])C(F)(F)F.O=S(=O)([O-])C(F)(F)F = T
C(=C\c1ccc(-c2cccs2)s1)/c1cc(/C=C/c2ccc(-c3cccs3)s2)[n+]2c(c1)-c1c(ccc3c1-c1cccc[n+]1CC3)CC2.O=S(=O)([O-])C(F)(F)F.O=S(=O)([O-])C(F)(F)F = T
Cc1c(C)c2c(c3c1CC[n+]1ccc(/C=C/c4ccsc4)cc1-3)-c1cccc(/C=C/c3ccsc3)[n+]1CC2 (racemic) = T
C(=C\c1c(-c2ccccc2)[nH]c2ccccc12)/c1cc2ccccc2[n+]2c1-c1c(ccc3c1-c1cccc[n+]1CCC3)CCC2.O=S(=O)([O-])C(F)(F)F.O=S(=O)([O-])C(F)(F)F = T
Cc1c(C)c2c(c3c1CC[n+]1ccc(/C=C/c4cccc5c4oc4ccccc45)cc1-3)-c1cc(/C=C/c3cccc4c3oc3ccccc34)cc[n+]1CC2.O=S(=O)([O-])C(F)(F)F.O=S(=O)([O-])C(F)(F)F = F
Cc1c(/C=C/c2cc3ccccc3[n+]3c2-c2c(ccc4c2-c2cccc[n+]2CCC4)CCC3)sc2ccccc12.O=S(=O)([O-])C(F)(F)F.O=S(=O)([O-])C(F)(F)F = F
Cc1nc[nH]c1/C=C/c1cc[n+]2c(c1)-c1c(ccc3c1-c1cc(/C=C/c4[nH]cnc4C)cc[n+]1CC3)CC2.O=S(=O)([O-])C(F)(F)F.O=S(=O)([O-])C(F)(F)F = F
C(=C\c1cc(/C=C/c2ccsc2)[n+]2c(c1)-c1c(ccc3c1-c1cc(/C=C/c4ccsc4)cc(/C=C/c4ccsc4)[n+]1CCC3)CCC2)/c1ccsc1 (racemic) = T
Cc1c(C)c2c(c3c1CC[n+]1ccc4ccccc4c1-3)-c1cccc(/C=C/c3cccc4c3oc3ccccc34)[n+]1CC2.O=S(=O)([O-])C(F)(F)F.O=S(=O)([O-])C(F)(F)F = F
CCOC(=O)c1cc(/C=C/c2cc[n+]3c(c2)-c2c(c(C)c(C)c4c2-c2c5ccccc5cc[n+]2CC4)CC3)c[nH]1.O=S(=O)([O-])C(F)(F)F.O=S(=O)([O-])C(F)(F)F = T
C(=C\c1cccc2c1oc1ccccc12)/c1cc[n+]2c(c1)-c1c(ccc3c1-c1cccc[n+]1CC3)CC2.O=S(=O)([O-])C(F)(F)F.O=S(=O)([O-])C(F)(F)F = T
C(=C\c1cc2ccccc2o1)/c1cc(/C=C/c2cc3ccccc3o2)[n+]2c(c1)-c1c(ccc3c1-c1cccc[n+]1CC3)CC2.O=S(=O)([O-])C(F)(F)F.O=S(=O)([O-])C(F)(F)F = T
C(=C\c1cc2ccccc2[n+]2c1-c1c(ccc3c1-c1cccc[n+]1CCC3)CCC2)/c1ccc(-c2cccs2)s1.O=S(=O)([O-])C(F)(F)F.O=S(=O)([O-])C(F)(F)F = T
Brc1ccc2c(/C=C/c3cc4ccccc4[n+]4c3-c3c(ccc5c3-c3cccc[n+]3CCC5)CCC4)c[nH]c2c1.O=S(=O)([O-])C(F)(F)F.O=S(=O)([O-])C(F)(F)F = T
Cc1nc[nH]c1/C=C/c1cc[n+]2c(c1)-c1c(c(C)c(C)c3c1-c1cccc(/C=C/c4[nH]cnc4C)[n+]1CC3)CC2.O=S(=O)([O-])C(F)(F)F.O=S(=O)([O-])C(F)(F)F = T
Cc1c(C)c2c(c3c1CC[n+]1ccc(/C=C/c4ccc(-n5c6ccccc6c6ccccc65)cc4)cc1-3)-c1c3ccccc3cc[n+]1CC2.O=S(=O)([O-])C(F)(F)F.O=S(=O)([O-])C(F)(F)F = F
Cc1c(C)c2c(c3c1CC[n+]1ccc(/C=C/c4cccc5c4oc4ccccc45)cc1-3)-c1c3ccccc3cc[n+]1CC2 (racemic) = T

----------
tested on: HUVEC; assay: XTT cytotoxicity/proliferation assay, HUVEC; assay type: cell-based, human; conditions: Homo sapiens, HUVEC, 72 hours of treatment, values above 100 μmol·l^−1 obtained by extrapolation, read-out: IC50 HUVEC
observation-type: IC50

C(=C\c1cc2ccccc2o1)/c1cc(/C=C/c2cc3ccccc3o2)[n+]2c(c1)-c1c(ccc3c1-c1cccc[n+]1CC3)CC2.O=S(=O)([O-])C(F)(F)F.O=S(=O)([O-])C(F)(F)F = ≥ 51 µM
Cn1c(/C=C/c2cc3ccccc3[n+]3c2-c2c(ccc4c2-c2cccc[n+]2CCC4)CCC3)cc2ccccc21 = ≥ 100 µM
C(=C\c1cc2ccccc2[n+]2c1-c1c(ccc3c1-c1cccc[n+]1CCC3)CCC2)/c1ccc(-c2cccs2)s1.O=S(=O)([O-])C(F)(F)F.O=S(=O)([O-])C(F)(F)F = ≥ 100 µM
Cc1c(C)c2c(c3c1CC[n+]1ccc4ccccc4c1-3)-c1cccc(/C=C/c3cccc4c3sc3ccccc34)[n+]1CC2 = ≥ 100 µM
C(=C\c1c[nH]c2c1ccc1ccccc12)/c1cc[n+]2c(c1)-c1c(ccc3c1-c1c4ccccc4cc[n+]1CC3)CC2 = ≥ 51 µM
C(=C\c1ccc(-c2cccs2)s1)/c1cc(/C=C/c2ccc(-c3cccs3)s2)[n+]2c(c1)-c1c(ccc3c1-c1cccc[n+]1CC3)CC2.O=S(=O)([O-])C(F)(F)F.O=S(=O)([O-])C(F)(F)F = 26 to 50 µM
Brc1ccc2c(/C=C/c3cc4ccccc4[n+]4c3-c3c(ccc5c3-c3cccc[n+]3CCC5)CCC4)c[nH]c2c1.O=S(=O)([O-])C(F)(F)F.O=S(=O)([O-])C(F)(F)F = ≥ 51 µM
Cc1c(/C=C/c2cc3ccccc3[n+]3c2-c2c(ccc4c2-c2cccc[n+]2CCC4)CCC3)sc2ccccc12.O=S(=O)([O-])C(F)(F)F.O=S(=O)([O-])C(F)(F)F = ≥ 51 µM
C(=C\c1cccc2c1oc1ccccc12)/c1cc[n+]2c(c1)-c1c(ccc3c1-c1c4ccccc4cc[n+]1CC3)CC2.O=S(=O)([O-])C(F)(F)F.O=S(=O)([O-])C(F)(F)F = ≥ 100 µM
Cc1c(C)c2c(c3c1CC[n+]1ccc(/C=C/c4cccc5c4oc4ccccc45)cc1-3)-c1c3ccccc3cc[n+]1CC2 (racemic) = ≥ 100 µM
Brc1ccc2[nH]cc(/C=C/c3cc4ccccc4[n+]4c3-c3c(ccc5c3-c3cccc[n+]3CCC5)CCC4)c2c1.O=S(=O)([O-])C(F)(F)F.O=S(=O)([O-])C(F)(F)F = ≥ 100 µM

----------
system: c-Myc27 oligonucleotide G-quadruplex; test: ECD melting curve of c-Myc27 oligonucleotide G-quadruplex with ligands; assay type: binding; settings: ECD at 263 nm; molar ratio oligonucleotide:ligand 1:1 (5 μmol l^−1 each); Li+-cacodylate buffer
observation-type: ΔTm (° C.) (°C)

Cc1c(C)c2c(c3c1CC[n+]1ccc(/C=C/c4cccc5c4oc4ccccc45)cc1-3)-c1c3ccccc3cc[n+]1CC2 (racemic) = 6.8
Cc1[nH]c2ccccc2c1/C=C/c1cc[n+]2c(c1)-c1c(c(C)c(C)c3c1-c1cc(/C=C/c4c(C)[nH]c5ccccc45)cc[n+]1CC3)CC2 = 9.8
Brc1ccc2[nH]cc(/C=C/c3cc[n+]4c(c3)-c3c(ccc5c3-c3cccc[n+]3CC5)CC4)c2c1.O=S(=O)([O-])C(F)(F)F.O=S(=O)([O-])C(F)(F)F = 6.4
